experimental.details: Pilot pharmacokinetic (PK) study with NAM microcapsules: NA and NAM serum levels
Assay type: in vivo, human
measurement.conditions: human, serum, oral, 900 mg, 900 mg free or enc. NAM; hour 4; subjects 1-3
Description: The study was a self-experiment by medical investigators performed at the Department of Internal Medicine 1 of the University Hospital Schleswig-Holstein, Campus Kiel (Kiel, Germany). In this study, subjects ingested either 900 mg of unformulated NAM (first week) or 900 mg of microencapsulated NAM packaged in gelatin capsules (second week). […] Height and body weight were recorded before ingestion of the test item.
experimental.readout: concentration at 4 h (ng/mL)

compound: NC(=O)c1cccnc1 [free NAM, nicotinamide]
experimental.readout: concentration at 4 h
value.unit: ng/mL
experimental.result: 5920
